Measured pIC50, listed per entry.
Sequence of the target: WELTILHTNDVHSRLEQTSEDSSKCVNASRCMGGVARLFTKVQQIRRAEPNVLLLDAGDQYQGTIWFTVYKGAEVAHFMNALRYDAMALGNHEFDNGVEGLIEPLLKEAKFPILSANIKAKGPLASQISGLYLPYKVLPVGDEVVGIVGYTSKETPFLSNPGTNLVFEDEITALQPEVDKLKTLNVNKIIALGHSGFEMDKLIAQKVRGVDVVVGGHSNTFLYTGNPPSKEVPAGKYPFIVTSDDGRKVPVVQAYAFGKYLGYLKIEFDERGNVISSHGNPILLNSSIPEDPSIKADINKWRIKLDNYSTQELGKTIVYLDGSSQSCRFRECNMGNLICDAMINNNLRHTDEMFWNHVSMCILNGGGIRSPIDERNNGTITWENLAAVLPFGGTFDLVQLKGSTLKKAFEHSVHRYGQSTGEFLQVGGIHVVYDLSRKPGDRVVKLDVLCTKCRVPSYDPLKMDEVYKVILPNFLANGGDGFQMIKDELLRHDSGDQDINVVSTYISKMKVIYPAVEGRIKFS
pIC50: −log10 of the molar value.

Guide cases for pIC50, answers given:
CCOC(=O)COC[C@@](COC)(OC[C@H]1O[C@@H](c2ccc3c(NC4CCCC4)nc(Cl)nn23)[C@H](O)[C@@H]1O)P(=O)(O)O
≥ 9.30
O=P(O)(O)[C@](CO)(COCc1nn[nH]n1)OC[C@H]1O[C@@H](c2ccc3c(NC4CCC4)nc(Cl)nn23)[C@H](O)[C@@H]1O
9.00 to 9.30
O=P(O)(O)C(CO)(Cc1nn[nH]n1)OC[C@H]1O[C@@H](c2ccc3c(NC4CCCC4)nc(CO)nn23)[C@H](O)[C@@H]1O (some centres unmarked)
9.00 to 9.30
O=P(O)(O)C(CO)(COCc1nn[nH]n1)OC[C@H]1O[C@@H](c2ccc3c(NC4CCCC4)nc(Cl)nn23)[C@H](O)[C@@H]1O (some centres unmarked)
≥ 9.30

Here's the next entry for you.
Looking up CC(CO)(OC[C@H]1O[C@@H](c2ccc3c(NC4CCCC4)nc(Cl)nn23)[C@H](O)[C@@H]1O)P(=O)(O)O (some centres unmarked) , I found its pIC50 recorded as 7.00 to 9.00
